Below, each of the variants is paired with its reported self-cleavage kobs at 640 uM GlcN6P value.
B1: glmS ribozyme (parent)
chain: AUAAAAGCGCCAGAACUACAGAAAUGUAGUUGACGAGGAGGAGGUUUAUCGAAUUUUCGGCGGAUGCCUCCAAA

Variants of: B1
test: self-cleavage kobs at 640 uM GlcN6P; higher = faster cleavage; RNA array
experimentalParameters: with glucosamine-6-phosphate
Fewer inactive variants are shown than the library holds.

Below: 3 variants and their reported self-cleavage kobs at 640 uM GlcN6P.
AUAAAGGCGCCAGAACUACAGAAAUGUAGUUUAUGAGGAGGAGGUUUAUCGAAUUUUCGGCGGAUGCCUCCAAA [A6G G32U C34U] = < 1e-05 s⁻¹
AUAAAAGGGCCAGACCUACAGAAAUGUAGUUGACGAGGAGGAGGUUUAUCGAAUUUUCGGCGGAUGCCUCCAAA [C8G A15C] = < 1e-05 s⁻¹
AUAAAAACGCCAGAACUACAGAAAUGUAGUUGACGAGGUGGAGGUUUCUCGAAUUUUCGGCGGAUGCCUCCAAA [G7A A39U A48C] = < 1e-05 s⁻¹

Data request: Give its self-cleavage kobs at 640 uM GlcN6P value. Item: AUAAAAGCGCCAGAACUACAGAAAUGUAGUUGACAAGGAGGAGGUUUAUCGACUUUUCGGCGGAUGCCUCCAAA [G35A A53C]
Data returned: < 1e-05 s⁻¹

Data request: Quick one: AUAAAAGCGCCAUUACUACAGAAAUGUAGUUGACGAGGAGGAGCUUUAUCGGAUUUUGGGCGGAUGCCUCCAAA [G13U A14U G44C A52G C58G]
Data returned: < 1e-05 s⁻¹

Data request: Quick one: AUAAAAGCGCCAGGACUACAUAAAUGUAGUGGACGAGUAGGAGGUUUAUCGAAUUUCCGGCGGAUGCCUCCAAA [A14G G21U U31G G38U U57C]
Data returned: < 1e-05 s⁻¹

Data request: Quick one: AUAAAAGCGCCAGAACUACAGAAAUGUAGUUGAAGAGGACGAGGUUUAUCGAAUUUUCGGUGGAUGCCUCCAAA [C34A G40C C61U]
Data returned: < 1e-05 s⁻¹

Data request: Quick one: AUAAAAGCGCAAGAACUACAGAAAUGUAGUUGUCGAGGAGGAGGUUUAUCGGAUUUUCGGCGGAUGCGUCCAAA [C11A A33U A52G C68G]
Data returned: 0.000157 s⁻¹

Data request: Quick one: AUAAAAGCGCCGGAACUACAGAAAUGUAGUUGACGAGGAGGGGGUUUAUCGAAUUUUCGGUGUAUGCCUCCAAA [A12G A42G C61U G63U]
Data returned: < 1e-05 s⁻¹

Data request: Quick one: AUAAAAGCGCCAGAACUACAGAAAUGUAGUUGACGAGGAGGAGGUUGAUCGAAUUUUCGGCGGAUUCCUCCAAA [U47G G66U]
Data returned: 6.79e-05 s⁻¹

Data request: Quick one: AUAAAAGCGCCAGAACUACAGAAAUGUAGUUGACGAGGAGGAGGUUUAUCGAAUUUUCGGCGGAAGACUCCAAA [U65A C67A]
Data returned: 8.78e-05 s⁻¹

Data request: Quick one: AUAAACGCGCCAGAACUACAGAAAUGUAGUUGACGAGGAGGAGGUUUAUCGAAUUUUCGGCGGAUGCCGCCAAA [A6C U69G]
Data returned: 0.000265 s⁻¹

Data request: Quick one: AUAAAAGCGCCAGAAAUACAGAAAUGUAGUUGACGAGGAGGAGGUUUAUCGAAUUUUCGGCGGAUUCAUCCAAA [C16A G66U C68A]
Data returned: 0.0001 s⁻¹

Data request: Quick one: AUAAAAGCGCCAGAACUACAGAAAUGUAGUUGACGAGGGGGAGGUUUAUCGAAUUUUCGGGGGCUGCCUCCAAA [A39G C61G A64C]
Data returned: < 1e-05 s⁻¹

Data request: Quick one: AUAAAAGCGCCAGUACUACAGAAAUGUAGUUGACGAGGAGGAGGUUUAUCGAAUUUUCGGCGGAAGCCUUCAAA [A14U U65A C70U]
Data returned: 0.000274 s⁻¹
